Values compiled from patent US20220289830A1.

Molecular target: native PcrV on live Pseudomonas aeruginosa (strains O6-57/66, O11-PA103, O1-52/66, O16-177/81) (Pseudomonas aeruginosa)
Experiment: cell-based or functional assay
Parameter: A549 cell lysis Average IC50 over the strains. Scope: all listed entries.
measurement.name: A549 cell lysis Average IC50 over the strains (µg/mL)

13-42 mAb (antibody, V domains shown) VH: EVQLLESGGGLVQPGGSLRLSCTASGFTFSDYPMSWVRQAPGKGLDWVSGISESGGSTNDADSVKGRFSTSRDNSKSTLYLDMNSLRAEDTAIYYCAKGRFCTNSSCFFRAVYGMDVWGQGTAVTVSS VL: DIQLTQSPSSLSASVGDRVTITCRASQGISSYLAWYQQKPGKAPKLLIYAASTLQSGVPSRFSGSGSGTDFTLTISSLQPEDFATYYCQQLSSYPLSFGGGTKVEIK	1.38
7B1 (antibody, V domains shown, also called 7B1-IgG1; 7B1 mAb) VH: EVQLLESGGGLVQPGGSLRLSCTASGFTFSDNYMSWVRQAPGKGLDWVSVISESGGSTNYADSVKGRFSTSRDNSKSTLYLDMNSLRAEDTAIYYCAKGRFSTLSSHFFRAVYGMDVWGQGTAVTVSS VL: DIQLTQSPSSLSASVGDRVTITCRASQGISSYLAWYQQKPGKAPKLLIYAASTLQSGVPSRFSGSGSGTDFTLTISSLQPEDFATYYCQQLSSYPLTFGGGTKVEIK	2.13
7C1 (antibody, V domains shown, also called optimized anti-PcrV mAb clone 7C1) VH: EVQLLESGGGLVQPGGSLRLSCTASGFTFSDNHMSWVRQAPGKGLDWVSGISESGGSTNYADSVKGRFSTSRDNSKSTLYLDMNSLRAEDTAIYYCAKGRFSTSSSHFYRAVYGMDVWGQGTAVTVSS VL: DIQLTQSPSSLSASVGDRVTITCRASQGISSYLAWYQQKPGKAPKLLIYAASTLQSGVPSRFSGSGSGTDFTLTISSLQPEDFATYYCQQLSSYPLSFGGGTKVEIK	1.18
8C1 (antibody, V domains shown, also called optimized anti-PcrV mAb clone 8C1) VH: EVQLLESGGGLVQPGGSLRLSCTASGFTFSDNHMSWVRQAPGKGLDWVSGISESGGSTNYADSVKGRFSTSRDNSKSTLYLDMNSLRAEDTAIYYCAKGRFSTNSAHFFRAVYGMDVWGQGTAVTVSS VL: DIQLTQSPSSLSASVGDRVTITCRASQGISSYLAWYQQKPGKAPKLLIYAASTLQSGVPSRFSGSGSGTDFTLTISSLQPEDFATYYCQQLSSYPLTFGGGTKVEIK	1.05
